# target_entity: GST-C-terminus-survivin (Lys90-Asp142) (Homo sapiens)
# Construct: C-terminus (Lys90-Asp142)
# Sequence (O15392 90-142): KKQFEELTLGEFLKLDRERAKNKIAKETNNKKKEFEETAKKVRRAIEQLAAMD
# protocol_text: Solid phase assay, GST-fusion protein
assay_readout: Kd (µM)
Numeric answer only, unit µM assumed.

Give Kd for the following molecule: NC(N)=NCCC[C@H](N)C(=O)NCC(=O)N[C@@H](CC(=O)O)C(=O)N[C@@H](CO)C(=O)O
30

====

# target_entity: GST-Full length survivin (Homo sapiens)
# Sequence (O15392 whole entry, the tested form may be a part): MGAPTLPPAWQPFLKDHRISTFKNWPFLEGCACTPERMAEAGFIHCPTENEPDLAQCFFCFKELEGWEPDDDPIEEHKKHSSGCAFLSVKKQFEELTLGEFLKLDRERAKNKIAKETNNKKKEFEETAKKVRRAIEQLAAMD
# protocol_text: Solid phase assay, GST-fusion protein
# Type: binding
# Parameters: Full length survivin and both N-terminus (Met1-Gly99) or C-terminus (Lys90-Asp142) were PCR amplified and cloned; made in house; host or cells: E. coli BL21(DE3)pLysS
assay_readout: pKd
# pKd: negative log10 of molar concentration; output just the value

Supply measured pKd of NC(N)=NCCC[C@H](N)C(=O)NCC(=O)N[C@@H](CC(=O)O)C(=O)N[C@@H](CO)C(=O)O in your reply.
4.56
